These measurements were taken from patent US20240318196A1.

# Tested on: Plants comprising Brassica Event MON94100
# Test name: Volunteer control: greenhouse plant injury rate after synthetic auxin herbicide spray
# Format: in vivo
# Condition parameters: 1× rate; sprayed at V3 stage; 9 days after treatment; greenhouse
# Plant Injury Rates (%) After Herbicide Spray, MON94100 listing for each entry below
Output spec: scalar in %, unitless text.

> print(dat)
                                   compound                              study.target  quantitative.result
1  N#Cc1cc(Br)c(O)c(Br)c1 [bromoxynil, 3,5-dibromo-4-hydroxybenzonitrile]  Plants comprising Brassica Event MON94100                 80.5

Hello, I am looking for reported Plant Injury Rates (%) After Herbicide Spray, MON94100 with Plants comprising Brassica Event MON94100 for Cc1cc(Cl)ccc1OCC(=O)O [MCPA, 4-chloro-2-methylphenoxy acetic acid] . Could you help?
73.0

Hello, I am looking for reported Plant Injury Rates (%) After Herbicide Spray, MON94100 with Plants comprising Brassica Event MON94100 for CNC.O=C(O)COc1ccc(Cl)cc1Cl [2,4-D amine] . Could you help?
74.5

Hello, I am looking for reported Plant Injury Rates (%) After Herbicide Spray, MON94100 with Plants comprising Brassica Event MON94100 for COc1c(Cl)ccc(Cl)c1C(=O)O [dicamba, 3,6-dichloro-2-methoxybenzoic acid] . Could you help?
0.0
